# System: Plasmodium berghei
# Experimental details: Luciferase/luciferin-expressing antifolate-resistant parasites were used to infect a culture of HepG2 cells that were pre-incubated with compounds. Infected hepatocytes emit light due to the luciferase reaction. Assay results are presented as the percent inhibition of light emission compared to control. […]
# Assay type: functional
# Condition info: sporozoite, HEPG2TOX_HILL_SLOPE 2.8, HEPG2TOX_R_SQUARED 0.967, PBLUC_HILL_SLOPE 2.43, PBLUC_R_SQUARED 0.609, read-out: LUCIFERASE INFECTION ASSAY - IC50
Quantity name: IC50

Fill in: IC50 of COc1ccc(Sc2nc(N(C)C)ncc2OC)cc1 is ___ 6.22 µM

----------
# System: Plasmodium berghei
# Experimental details: Luciferase/luciferin-expressing antifolate-resistant parasites were used to infect a culture of HepG2 cells that were pre-incubated with compounds. Infected hepatocytes emit light due to the luciferase reaction. Assay results are presented as the percent inhibition of light emission compared to control. […]
# Format: functional
# Condition info: sporozoite, HEPG2TOX_HILL_SLOPE 4.03, HEPG2TOX_R_SQUARED 0.974, PBLUC_HILL_SLOPE 1.79, PBLUC_R_SQUARED 0.765, read-out: LUCIFERASE INFECTION ASSAY - IC50
Quantity name: IC50
Could you write the number and then its unit?

Bench note: what IC50 did COc1cc(/C=C2/C(=O)Nc3cc(Cl)ccc32)c([N+](=O)[O-])cc1OC(F)F show? 1340 nM

----------
# Tested on: Plasmodium berghei
# Experimental details: Luciferase/luciferin-expressing antifolate-resistant parasites were used to infect a culture of HepG2 cells that were pre-incubated with compounds. Infected hepatocytes emit light due to the luciferase reaction. Assay results are presented as the percent inhibition of light emission compared to control. […]
# Type: functional
# Condition info: sporozoite, PBLUC_HILL_SLOPE 24.9, PBLUC_R_SQUARED 0.0553, read-out: LUCIFERASE INFECTION ASSAY - IC50
Quantity name: IC50 (µM)
Number only, in µM; omit the unit.

Lab note: need IC50 with Plasmodium berghei for entry O=C(OCc1cc(=O)oc2cc(O)ccc12)c1ccc(Cl)c(S(=O)(=O)N2CCCCCC2)c1 , please look it up. 9.36

----------
# System: Plasmodium berghei
# Experimental details: Luciferase/luciferin-expressing antifolate-resistant parasites were used to infect a culture of HepG2 cells that were pre-incubated with compounds. Infected hepatocytes emit light due to the luciferase reaction. Assay results are presented as the percent inhibition of light emission compared to control. […]
# Assay type: functional
# Condition info: sporozoite, FFLUC_HILL_SLOPE 7.96, FFLUC_R_SQUARED 0.134, read-out: LUCIFERASE INFECTION ASSAY - IC50
Quantity name: IC50

Which IC50 value is on record for COc1ccc(-c2nnc(SCc3csc(-c4ccccc4)n3)n2CCc2ccccc2)cc1 ? > 10 µM

----------
# System: Plasmodium berghei
# Experimental details: Luciferase/luciferin-expressing antifolate-resistant parasites were used to infect a culture of HepG2 cells that were pre-incubated with compounds. Infected hepatocytes emit light due to the luciferase reaction. Assay results are presented as the percent inhibition of light emission compared to control. […]
# Type: functional
# Condition info: sporozoite, PBLUC_HILL_SLOPE 10, PBLUC_R_SQUARED 0.136, read-out: LUCIFERASE INFECTION ASSAY - IC50
Quantity name: IC50 (µM)
Your answer should be a plain number; it is taken to be in µM.

Fill in: IC50 of O=C1N(Cc2ccccn2)C(=O)C2(CCN(C3CCc4ccccc4C3)CC2)N1Cc1ccccc1 (stereo unspecified) is ___ 6.39

----------
# Test system: Plasmodium berghei
# Experimental details: Luciferase/luciferin-expressing antifolate-resistant parasites were used to infect a culture of HepG2 cells that were pre-incubated with compounds. Infected hepatocytes emit light due to the luciferase reaction. Assay results are presented as the percent inhibition of light emission compared to control. […]
# Assay type: functional
# Condition info: sporozoite, PBLUC_HILL_SLOPE 16.0, 14.5, PBLUC_R_SQUARED 0.463, 0.641, read-out: LUCIFERASE INFECTION ASSAY - IC50
Quantity name: IC50 (nM)
Kindly provide the numeric value in nM only, without the unit symbol.

I have this molecule here, CNC(=O)c1ccc(CN(Cc2csc(-c3ccsc3)n2)Cc2ccco2)cc1 , and I need its recorded IC50. 2820

----------
# Tested on: Plasmodium berghei
# Experimental details: Luciferase/luciferin-expressing antifolate-resistant parasites were used to infect a culture of HepG2 cells that were pre-incubated with compounds. Infected hepatocytes emit light due to the luciferase reaction. Assay results are presented as the percent inhibition of light emission compared to control. […]
# Type: functional
# Condition info: sporozoite, HEPG2TOX_HILL_SLOPE 6.06, HEPG2TOX_R_SQUARED 0.736, PBLUC_HILL_SLOPE 16.1, PBLUC_R_SQUARED 0.664, read-out: LUCIFERASE INFECTION ASSAY - IC50
Quantity name: pIC50
Remember the convention: pIC50 equals -log10 of concentration in molar.

Lookup: pIC50 / Plasmodium berghei / COc1cc(/C=C(/C(=O)OCC(=O)NC2CCCCC2C)c2ccc(-c3ccccc3)cc2)cc(OC)c1OC (stereo unspecified) 5.48

----------
# Tested on: Plasmodium berghei
# Experimental details: Luciferase/luciferin-expressing antifolate-resistant parasites were used to infect a culture of HepG2 cells that were pre-incubated with compounds. Infected hepatocytes emit light due to the luciferase reaction. Assay results are presented as the percent inhibition of light emission compared to control. […]
# Format: functional
# Condition info: sporozoite, HEPG2TOX_HILL_SLOPE 8.98, HEPG2TOX_R_SQUARED 0.824, PBLUC_HILL_SLOPE 3.11, PBLUC_R_SQUARED 0.121, read-out: LUCIFERASE INFECTION ASSAY - IC50
Quantity name: IC50 (µM)
Form entry: value (µM) — number only.

Quick check: IC50 of CC(C)(C)c1nc2ccc(NC(=O)c3ccc(Cl)c(S(=O)(=O)NC4CC4)c3)cc2[nH]1 ? 7.36

----------
# System: Plasmodium berghei
# Experimental details: Luciferase/luciferin-expressing antifolate-resistant parasites were used to infect a culture of HepG2 cells that were pre-incubated with compounds. Infected hepatocytes emit light due to the luciferase reaction. Assay results are presented as the percent inhibition of light emission compared to control. […]
# Type: functional
# Condition info: sporozoite, HEPG2TOX_HILL_SLOPE 11.9, HEPG2TOX_R_SQUARED 0.324, PBLUC_HILL_SLOPE 2.98, 3.06, PBLUC_R_SQUARED 0.831, 0.940, read-out: LUCIFERASE INFECTION ASSAY - IC50
Quantity name: pIC50
// field semantics: pIC50 = negative decimal log of concentration (mol/L)

Query for Plasmodium berghei: what pIC50 does the record show for O=C(c1cc2ccccc2cc1O)N1CCN(Cc2ccc3c(c2)OCO3)CC1 ? 5.36

----------
# Test system: Plasmodium berghei
# Experimental details: Luciferase/luciferin-expressing antifolate-resistant parasites were used to infect a culture of HepG2 cells that were pre-incubated with compounds. Infected hepatocytes emit light due to the luciferase reaction. Assay results are presented as the percent inhibition of light emission compared to control. […]
# Type: functional
# Condition info: sporozoite, FFLUC_HILL_SLOPE 4.83, FFLUC_R_SQUARED 0.721, HEPG2TOX_HILL_SLOPE 9.42, HEPG2TOX_R_SQUARED 0.907, PBLUC_HILL_SLOPE 30.3, PBLUC_R_SQUARED 0.463, read-out: LUCIFERASE INFECTION ASSAY - IC50
Quantity name: IC50 (µM)
// return numeric value only (unit: µM, not printed)

Given the compound Cc1ccc(-c2oc(NC(=O)c3cncc(Br)c3)c(C#N)c2-c2ccc(C)cc2)cc1 , what is its reported IC50? 9.13

----------
# Test system: Plasmodium berghei
# Experimental details: Luciferase/luciferin-expressing antifolate-resistant parasites were used to infect a culture of HepG2 cells that were pre-incubated with compounds. Infected hepatocytes emit light due to the luciferase reaction. Assay results are presented as the percent inhibition of light emission compared to control. […]
# Assay type: functional
# Condition info: sporozoite, FFLUC_HILL_SLOPE 304, FFLUC_R_SQUARED 0.442, PBLUC_HILL_SLOPE 2.01, PBLUC_R_SQUARED 0.722, read-out: LUCIFERASE INFECTION ASSAY - IC50
Quantity name: IC50
# number then unit; no other words

I have this compound here, CCN(CC)c1nc2c3c(nc4c(c3c1C#N)CC(c1ccccc1)O4)NC1(CCCCC1)N2 (stereo unspecified) , and I need its recorded IC50. 6.1 µM

----------
# Test system: Plasmodium berghei
# Experimental details: Luciferase/luciferin-expressing antifolate-resistant parasites were used to infect a culture of HepG2 cells that were pre-incubated with compounds. Infected hepatocytes emit light due to the luciferase reaction. Assay results are presented as the percent inhibition of light emission compared to control. […]
# Assay type: functional
# Condition info: sporozoite, HEPG2TOX_HILL_SLOPE 6.65, HEPG2TOX_R_SQUARED 0.257, PBLUC_HILL_SLOPE 26.3, PBLUC_R_SQUARED 0.641, read-out: LUCIFERASE INFECTION ASSAY - IC50
Quantity name: IC50 (µM)
Write down the numeric answer in µM and omit the unit.

Find the measured IC50: item COc1ccc(Nc2cc3c(cn2)cc(-c2ccc(C(=O)N(C)C)cc2)n3Cc2ccccc2)cc1 , target or system Plasmodium berghei. 8.59
